Assignment: determine reported ratio (ph 7.4/pH 6.0) for the given binders.
Target: T1, recombinant cyno CD46 antigen (cynomolgus, UniProt A0A2K5WCL8 35-328)
T1 construct: extracellular domain; Plate-coated antigen of the ELISA; also called cynomolgus CD46 extracellular domain
T1 sequence: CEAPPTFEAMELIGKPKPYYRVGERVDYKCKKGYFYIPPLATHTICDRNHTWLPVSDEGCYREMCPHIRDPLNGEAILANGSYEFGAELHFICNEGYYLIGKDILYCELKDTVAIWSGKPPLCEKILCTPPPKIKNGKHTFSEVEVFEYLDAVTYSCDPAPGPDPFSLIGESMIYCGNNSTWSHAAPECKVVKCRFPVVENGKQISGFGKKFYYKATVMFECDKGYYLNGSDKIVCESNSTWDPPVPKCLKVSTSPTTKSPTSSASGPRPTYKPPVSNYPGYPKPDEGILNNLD
Assay: ELISA, coated cyno CD46; EC50 at pH 7.4 over EC50 at pH 6.0
One number for each entry.

Some binders with known ratio (ph 7.4/pH 6.0) results, for comparison:
binder	ratio (ph 7.4/pH 6.0)
BA-133-04-02 (antibody, V domains shown, also called CPE hit BA133-04-02) VH: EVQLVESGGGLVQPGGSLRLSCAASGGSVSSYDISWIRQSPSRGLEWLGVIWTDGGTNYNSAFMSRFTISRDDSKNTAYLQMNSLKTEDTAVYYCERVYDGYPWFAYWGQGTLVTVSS VL: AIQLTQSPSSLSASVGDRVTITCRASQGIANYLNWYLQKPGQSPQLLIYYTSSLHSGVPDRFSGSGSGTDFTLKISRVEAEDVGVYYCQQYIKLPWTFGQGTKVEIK	9
Benchmark (BM) BA-133-00-01 (antibody, V domains shown, the killing assays used the ADC form; Conjugation site and payload are not described; also called BM (bench mark)) VH: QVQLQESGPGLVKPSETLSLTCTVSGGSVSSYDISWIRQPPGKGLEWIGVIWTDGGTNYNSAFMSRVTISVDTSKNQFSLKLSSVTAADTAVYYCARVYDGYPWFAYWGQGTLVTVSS VL: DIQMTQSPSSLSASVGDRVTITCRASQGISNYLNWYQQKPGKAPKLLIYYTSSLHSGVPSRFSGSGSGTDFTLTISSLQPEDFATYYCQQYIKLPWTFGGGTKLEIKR	1.33

Now, please, on to the next binder.
Note to self: ratio (ph 7.4/pH 6.0) recorded for BAP133-2-03-03-SL (antibody, V domains shown, the killing assays used the ADC form; also called BAP133-02-03-03-SL; CPE hit BAP133-2-03-03-SL) VH: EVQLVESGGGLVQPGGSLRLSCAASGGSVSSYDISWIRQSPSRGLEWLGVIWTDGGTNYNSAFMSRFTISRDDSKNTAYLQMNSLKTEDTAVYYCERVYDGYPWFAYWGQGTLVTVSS VL: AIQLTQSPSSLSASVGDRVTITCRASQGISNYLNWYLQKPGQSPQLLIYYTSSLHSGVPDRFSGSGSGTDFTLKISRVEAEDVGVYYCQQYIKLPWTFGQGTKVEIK was 11

Values were extracted from patent US20230242662A1.
